Sourced from patent US5451599A

system: Hela (cervix uteri cancer cells); assay: 48 h incubation with the salts: cell fluorescence, living cells, multiplication coefficient (Table 1); type: cell-based, Human; conditions: 48 hs, 50 mcg/ml
measurementName: Percentage of living cells /P %/ (%)
Respond numerically; units are % and should not be typed.

CC1=C(CCC(=O)O)c2cc3[nH]c(cc4nc(cc5[nH]c(cc1n2)c(C(C)NC(Cc1ccccc1)C(=O)O)c5C)C(C(C)NC(Cc1ccccc1)C(=O)O)=C4C)c(C)c3CCC(=O)O.N=C(N)NCCC[C@H](N)C(=O)O.N=C(N)NCCC[C@H](N)C(=O)O (centres unmarked)    5

Can you share its Percentage of living cells /P %/? I mean this molecule: CC1=C(CCC(=O)O)c2cc3[nH]c(cc4nc(cc5[nH]c(cc1n2)c(C(C)NC(CO)C(=O)O)c5C)C(C(C)NC(CO)C(=O)O)=C4C)c(C)c3CCC(=O)O.N=C(N)NCCC[C@H](N)C(=O)O.N=C(N)NCCC[C@H](N)C(=O)O (stereo not drawn) [PP/Ser/2 /Arg/2, l-arginine di/N-seryl/-protoporphyrinate]
55
